Test target: UniProt:P00533
Protocol description: WT-EGFR Kinase Assay (TR-FRET, 2 mM ATP)
Assay type: biochemical
Condition summary: EGFR Wildtyp 2 mM ATP IC50 [mol/l] (median), median or individual measurements
Metric: IC50

Answered examples (6):
CC(C(=O)Nc1cc(-c2[nH]c3ccn(C)c(=O)c3c2-c2ccc(F)nc2)ccn1)c1ccc(F)cc1 (racemic) = > 20 µM
CC(C(=O)Nc1cc(-c2[nH]c3c(c2-c2ccc(F)cc2)C(=O)NC(C)(C)C3)ccn1)c1ccc(F)cc1 (single isomer, unassigned) [Example 95] = > 20 µM
CC(C(=O)Nc1cc(-c2[nH]c3c(c2-c2ccccc2)C(=O)NCC3(C)C)ccn1)c1ccc(F)cc1 (single isomer, unassigned) [Example 047] = > 20 µM
CC(C(=O)Nc1cc(-c2[nH]c3c(c2-c2ccc(Cl)cc2)C(=O)NC(C)(C)C3)ccn1)c1ccc(F)cc1 (racemic) = > 20 µM
CN1CCc2[nH]c(-c3ccnc(NC(=O)C(CC(F)F)c4ccc(F)cc4)c3)c(-c3cccnc3)c2C1=O (racemic) [Example 009] = > 20 µM
CC(C(=O)Nc1cc(-c2[nH]c3c(CC(F)(F)F)cn(C)c(=O)c3c2-c2ccccc2)ccn1)c1ccc(F)cc1 (single isomer, unassigned; (+)) [Example 015] = 1.91 µM

Specify IC50 for Cn1cc(CC(F)(F)F)c2[nH]c(-c3ccnc(NC(=O)C(CC(F)F)c4ccc(F)cc4)c3)c(-c3ccc(F)cc3)c2c1=O (single isomer, unassigned) [Example 028] and stop.
> 5.71 µM

Respond only with IC50 recorded for CN1CCc2[nH]c(-c3ccnc(NC(=O)C(CC(F)F)c4ccc(F)cc4)c3)c(-c3ccc(F)cc3F)c2C1=O (racemic) [Example 66]
> 20 µM

Give IC50 for O=C(Nc1cc(-c2[nH]c3ccn(C4CC4)c(=O)c3c2-c2ccc(F)cc2)ccn1)C(CC(F)F)c1ccc(F)cc1 (racemic) [Example 134]
> 20 µM

###

Test target: CSNK1D (Homo sapiens (Human))
pIC50: −log10 of the molar value.
Respond with true for pIC50 values of 8 and above, false for values below.

Worked cases, answers included:
CN1CCc2[nH]c(-c3ccnc(NC(=O)C(CC(F)F)c4ccc(F)cc4)c3)c(-c3ccc(F)cc3F)c2C1=O (single isomer, unassigned) [Example 68] = true
CN1CC(CC2CC2)c2[nH]c(-c3ccnc(NC(=O)Cc4ccc(F)cc4)c3)c(-c3ccc(F)cc3)c2C1=O (racemic) = true

Is reported pIC50 greater than or equal to 8 here: Cc1cn(C)c(=O)c2c(-c3ccc(F)cc3)c(-c3ccnc(NC(=O)C(CC(F)F)c4ccc(F)cc4)c3)[nH]c12 (single isomer, unassigned; (-)) [Example 35]
false

###

Test target: CSNK1D (Homo sapiens (Human), UniProt P48730)
Sequence (P48730 whole entry): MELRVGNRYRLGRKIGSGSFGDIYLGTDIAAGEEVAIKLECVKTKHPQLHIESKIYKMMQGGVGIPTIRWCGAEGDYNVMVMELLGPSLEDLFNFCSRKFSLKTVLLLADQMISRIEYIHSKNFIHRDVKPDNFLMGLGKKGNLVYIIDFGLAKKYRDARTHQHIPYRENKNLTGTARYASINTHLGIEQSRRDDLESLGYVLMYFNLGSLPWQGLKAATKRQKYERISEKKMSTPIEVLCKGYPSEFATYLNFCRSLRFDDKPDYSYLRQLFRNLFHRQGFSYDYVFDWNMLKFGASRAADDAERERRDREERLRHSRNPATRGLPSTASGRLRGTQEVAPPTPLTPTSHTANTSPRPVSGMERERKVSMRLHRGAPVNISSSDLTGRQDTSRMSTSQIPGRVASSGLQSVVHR
Metric: pIC50
Value format note: pIC50 is -log10 of concentration (mol/L); just state the number.

CN1C(=O)c2c([nH]c(-c3ccnc(NC(=O)C(CC(F)F)c4ccc(F)cc4)c3)c2-c2ccccc2)CC12CCC2 (racemic) [Example 49] = 8.35

Provide pIC50, system CSNK1D (Homo sapiens (Human), UniProt P48730), entry CC(C(=O)Nc1cc(-c2[nH]c3ccn(C)c(=O)c3c2-c2ccc(F)cc2)ccn1)c1ccc(F)cc1 (single isomer, unassigned; (+)) [Example 102]
8.70

Fill in pIC50 for Cn1cc(CC2CC2)c2[nH]c(-c3ccnc(NC(=O)C(CC(F)F)c4ccc(F)cc4)c3)c(-c3ccccc3)c2c1=O (racemic) tested with CSNK1D (Homo sapiens (Human), UniProt P48730).
8.02

###

Test target: wild-type Epidermal Growth Factor Receptor (EGFR) (Homo sapiens (Human), UniProt P00533)
Sequence (P00533 669-1210): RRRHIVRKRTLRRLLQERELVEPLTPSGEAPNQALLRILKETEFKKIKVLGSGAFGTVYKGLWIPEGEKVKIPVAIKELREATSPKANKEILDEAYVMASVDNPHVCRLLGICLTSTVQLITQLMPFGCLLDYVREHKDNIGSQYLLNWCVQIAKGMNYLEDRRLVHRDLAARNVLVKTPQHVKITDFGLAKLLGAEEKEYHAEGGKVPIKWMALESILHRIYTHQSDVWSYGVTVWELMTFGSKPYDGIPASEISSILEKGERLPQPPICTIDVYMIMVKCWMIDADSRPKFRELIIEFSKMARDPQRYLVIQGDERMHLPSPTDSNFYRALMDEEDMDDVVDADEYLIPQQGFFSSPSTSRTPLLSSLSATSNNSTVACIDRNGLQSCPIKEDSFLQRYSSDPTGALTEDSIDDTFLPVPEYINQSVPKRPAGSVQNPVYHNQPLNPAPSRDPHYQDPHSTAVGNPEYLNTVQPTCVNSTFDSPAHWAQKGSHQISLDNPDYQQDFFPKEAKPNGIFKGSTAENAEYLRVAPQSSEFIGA
Protocol description: WT-EGFR Kinase Assay (TR-FRET, 2 mM ATP)
Assay type: biochemical
Condition summary: EGFR Wildtyp 2 mM ATP IC50 [mol/l] (median), median or individual measurements
pIC50: −log10 of the molar value.
Metric: pIC50

Solved cases (5 shown):
CC(C(=O)Nc1cc(-c2[nH]c3ccn(C)c(=O)c3c2-c2ccc(F)cc2)ccn1)c1ccc(F)cc1 (single isomer, unassigned; (+)) [Example 102] = 6.06
CC(C(=O)Nc1cc(-c2[nH]c3ccn(C)c(=O)c3c2-c2cccc(O)c2)ccn1)c1ccc(F)cc1 (racemic) [Example 113] = < 4.70
CC(C(=O)Nc1cc(-c2[nH]c3c(c2-c2cccnc2)C(=O)NC(C)(C)C3)ccn1)c1ccc(F)cc1 (single isomer, unassigned) [Example 98] = < 4.70
CC(C(=O)Nc1cc(-c2[nH]c3c(c2-c2ccccc2)C(=O)N(C)CC3)ccn1)c1ccncc1 (single isomer, unassigned) [Example 155] = < 4.70
CC(C(=O)Nc1cc(-c2[nH]c3ccn(C)c(=O)c3c2-c2ccccc2)ccn1)c1ccc(F)cc1 (single isomer, unassigned) [Example 105] = 5.09

Please list pIC50 recorded for the compound Cn1ccc2[nH]c(-c3ccnc(NC(=O)C(CC(F)F)c4ccc(F)cc4)c3)c(-c3ccc(F)cc3)c2c1=O (racemic) [Example 107]
< 4.70

###

Catalogue of compounds with associated pIC50
Test target: CSNK1A1 (Homo sapiens (Human), UniProt P48729)
Sequence (P48729 whole entry): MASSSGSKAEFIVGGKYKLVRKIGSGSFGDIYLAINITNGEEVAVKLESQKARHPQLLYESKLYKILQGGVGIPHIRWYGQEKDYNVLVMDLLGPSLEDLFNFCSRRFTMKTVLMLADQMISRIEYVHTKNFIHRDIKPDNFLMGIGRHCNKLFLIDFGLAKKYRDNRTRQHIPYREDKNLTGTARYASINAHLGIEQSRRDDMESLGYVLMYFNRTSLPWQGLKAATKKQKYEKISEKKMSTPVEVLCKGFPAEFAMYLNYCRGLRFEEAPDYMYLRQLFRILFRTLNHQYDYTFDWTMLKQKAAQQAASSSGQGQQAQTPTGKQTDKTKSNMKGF
Scale note: pIC50 = -log10(concentration in M).

Illustrative cases are given below, each with its answer.
CN1CCc2[nH]c(-c3ccnc(NC(=O)C(CC(F)F)c4ccc(F)cc4)c3)c(-c3ccccc3)c2C1=O (single isomer, unassigned) [Example 3] = 8.33
CC(C(=O)Nc1cc(-c2[nH]c3ccn(C)c(=O)c3c2-c2ccccc2Cl)ccn1)c1ccc(F)cc1 (racemic) [Example 112] = 7.64
CN1CC(CC(F)(F)F)c2[nH]c(-c3ccnc(NC(=O)C(CC(F)F)c4ccc(F)cc4)c3)c(-c3ccc(F)cc3)c2C1=O (stereo not drawn) [Example 25] = 8.19

Retrieve pIC50 on CSNK1A1 (Homo sapiens (Human), UniProt P48729); query CC(C(=O)Nc1cc(-c2[nH]c3c(c2-c2ccccc2)C(=O)N(C)C2(CCC2)C3)ccn1)c1ccc(F)cc1 (single isomer, unassigned; (+)) [Example 54]
8.80

Give CSNK1A1 (Homo sapiens (Human), UniProt P48729) pIC50 for the following compound: CN1CC(CC2CC2)c2[nH]c(-c3ccnc(NC(=O)Cc4ccc(F)cc4)c3)c(-c3ccc(F)cc3)c2C1=O (racemic) [Example 61]
8.70

Param request: pIC50 | system CSNK1A1 (Homo sapiens (Human), UniProt P48729) | item Cc1cn(C)c(=O)c2c(-c3ccc(F)cc3)c(-c3ccnc(NC(=O)C(C)c4ccc(F)cc4)c3)[nH]c12 (single isomer, unassigned; (+)) [Example 32]
8.36

###

Test target: CSNK1D (Homo sapiens (Human), UniProt P48730)
Metric: pIC50
The meaning of pIC50 here: minus log10 of the concentration in molar units.

Please review the following examples before continuing.
CN1CCc2[nH]c(-c3ccnc(NC(=O)Cc4ccc(F)cc4)c3)c(-c3cccnc3)c2C1=O = 7.89
Cc1cn(C)c(=O)c2c(-c3ccc(F)cc3)c(-c3ccnc(NC(=O)C(CC(F)F)c4ccc(F)cc4)c3)[nH]c12 (single isomer, unassigned; (+)) [Example 36] = 8.46

For CSNK1D (Homo sapiens (Human), UniProt P48730), give the measured pIC50 of the entry CC(C(=O)Nc1cc(-c2[nH]c3c(c2-c2ccccc2F)C(=O)NC(C)(C)C3)ccn1)c1ccc(F)cc1 (stereo not drawn)
7.89

Under CSNK1D (Homo sapiens (Human), UniProt P48730), report pIC50 for Cn1cc(Cl)c2[nH]c(-c3ccnc(NC(=O)Cc4ccc(F)cc4)c3)c(-c3ccccc3)c2c1=O
8.32

Recall the reported pIC50 of CC(C(=O)Nc1cc(-c2[nH]c3ccn(C)c(=O)c3c2-c2ccc(O)cc2)ccn1)c1ccc(F)cc1 (racemic) on CSNK1D (Homo sapiens (Human), UniProt P48730) and write it down.
7.96

Find the measured pIC50 of CC(C(=O)Nc1cc(-c2[nH]c3ccn(C)c(=O)c3c2-c2ccccc2)ccn1)c1ccc(F)cc1 (single isomer, unassigned) [Example 104] with CSNK1D (Homo sapiens (Human), UniProt P48730) as test system.
8.29

###

Test target: wild-type Epidermal Growth Factor Receptor (EGFR) (Homo sapiens (Human), UniProt P00533)
Protocol description: WT-EGFR Kinase Assay (TR-FRET, 2 mM ATP)
Type: biochemical
Condition summary: read-out: EGFR Wildtyp 2 mM ATP IC50 [mol/l] (median), median or individual measurements
pIC50: −log10 of the molar value.
Below: a set of entries, each annotated with reported pIC50.

Recorded pIC50, per entry:
CC(C(=O)Nc1cc(-c2[nH]c3ccn(C)c(=O)c3c2-c2cc(F)cc(F)c2)ccn1)c1ccc(F)cc1 (racemic) = < 5.24
CN1CCc2[nH]c(-c3ccnc(NC(=O)Cc4ccc(F)cc4)c3)c(-c3cccnc3)c2C1=O = < 4.70
CN1CC(CC(F)(F)F)c2[nH]c(-c3ccnc(NC(=O)C(CC(F)F)c4ccc(F)cc4)c3)c(-c3ccc(F)cc3)c2C1=O (stereo not shown) = < 4.70

Below: the item to evaluate.
Determine its reported pIC50: Cc1cn(C)c(=O)c2c(-c3ccc(F)cc3)c(-c3ccnc(NC(=O)C(CC(F)F)c4ccc(F)cc4)c3)[nH]c12 (single isomer, unassigned; (+))
< 4.70
